# ASSAY DETAILS: Pharmacokinetics and oral bioavailability of D11.3 in male Swiss albino mice (IV, PO, SQ)
# Assay type: in vivo
# COND: male, Swiss Albino, mouse, plasma, iv, 1 mg/kg, IV 1.00 mg/kg, 0.08 h, individual mice M1, M2, M3; read-out: Plasma concentration
Where a SMILES comes first, the peptide text is derived from it. [ ]: non-standard residue; d: D form. dNMeI = CC[C@@H](C)[C@@H](NC)C(=O)O; NMeL = CN[C@@H](CC(C)C)C(=O)O
MEASUREMENT TYPE: level at 0.08 h (ng/mL)
Numbers only, in ng/mL.

input: For the compound shown here, CC[C@@H](C)[C@H]1NC(=O)[C@H]([C@@H](C)CC)NC(=O)[C@H](CC(C)C)N(C)C(=O)[C@H]2CCCN2C(=O)[C@@H]([C@H](C)CC)NC(=O)[C@@H]([C@H](C)CC)N(C)C(=O)[C@H](CC(C)C)NC(=O)[C@H]2CCCN2C(=O)[C@@H]2CCCN2C(=O)[C@H](C(C)C)NC(=O)[C@H]2CCCN2C1=O [Design D11.3] (cyclo(I[dI][dP]VP[dP]L[dNMeI][dI][dP][NMeL])) , give the reported level at 0.08 h.
output: 3320

----------
# COND: PAMPA
Where a SMILES comes first, the peptide text is derived from it. [ ]: non-standard residue; d: D form. NMeL = CN[C@@H](CC(C)C)C(=O)O; dNMeL = CN[C@H](CC(C)C)C(=O)O; NMeM = CN[C@@H](CCSC)C(=O)O; NMeV = CN[C@H](C(=O)O)C(C)C; Sar = CNCC(=O)O
MEASUREMENT TYPE: PAMPA_Papp_Avg

# example entries with known answers
- CC[C@H](C)[C@@H]1NC(=O)[C@H](CCSC)N(C)C(=O)[C@H]2CCCN2C(=O)[C@H](CC(C)C)NC(=O)[C@@H](Cc2ccccc2)NC(=O)[C@@H]2CCCN2C(=O)[C@H]2CCCN2C(=O)[C@H]([C@@H](C)CC)NC(=O)[C@@H](CC(C)C)N(C)C(=O)[C@H](CC(C)C)N(C)C1=O [Design D10.36] (cyclo([dF]L[dP][NMeM]I[NMeL][dNMeL]I[dP]P)): BQL
- CC(C)C[C@@H]1C(=O)N(C)[C@@H](Cc2ccccc2)C(=O)N[C@@H](C(C)C)C(=O)N2CCC[C@H]2C(=O)NCC(=O)N2CCC[C@H]2C(=O)N(C)[C@H](CC(C)C)C(=O)N[C@@H](C(C)C)C(=O)N[C@H](CC(C)C)C(=O)N1C (single isomer, unassigned) [Design D9.43.p1]: 9.46E-07
- CC[C@@H](C)[C@H]1NC(=O)[C@H]2CCCN2C(=O)[C@@H]2CCCN2C(=O)[C@H](C(C)C)NC(=O)[C@@H](C(C)C)NC(=O)[C@@H]2CCCN2C(=O)[C@H]2CCCN2C(=O)[C@@H](C)NC1=O [Design D8.11, DALA DPRO PRO DVAL VAL PRO DPRO DILE] (cyclo([dV]VP[dP][dI][dA][dP]P)): BQL
- CC[C@@H](C)[C@H]1NC(=O)[C@@H](CC(C)C)NC(=O)[C@@H](CC(C)C)NC(=O)[C@@H](C)NC(=O)[C@@H](CC(C)C)NC(=O)[C@H]2CCCN2C(=O)[C@@H]2CCCN2C(=O)[C@H]2CCCN2C(=O)[C@@H](C)NC(=O)[C@@H](CC(C)C)N(C)C(=O)[C@H]2CCCN2C1=O [Design D11.19] (cyclo([dP][dL][dA][dL][dL][dI][dP][dNMeL][dA][dP]P)): BQL
- CC[C@@H](C)[C@H]1NC(=O)[C@@H](CC(C)C)N(C)C(=O)[C@@H]2CCCN2C(=O)[C@H]([C@@H](C)CC)NC(=O)[C@H]([C@@H](C)CC)N(C)C(=O)[C@@H](CC(C)C)NC(=O)[C@@H](C(C)C)N(C)C(=O)[C@H]2CCCN2C(=O)[C@@H](C(C)C)NC(=O)[C@@H]2CCCN2C(=O)[C@H]([C@@H](C)CC)NC1=O (single isomer, unassigned) [Design D11.23.p2]: 9.83E-07

We now examine a further compound.
input: For the compound shown here, CC(C)C[C@H]1C(=O)N[C@@H](C)C(=O)N(C)CC(=O)N2CCC[C@@H]2C(=O)N(C)[C@@H](C(C)C)C(=O)N[C@@H](C(C)C)C(=O)N2CCC[C@H]2C(=O)N2CCC[C@@H]2C(=O)N[C@@H](C)C(=O)N[C@H](C(C)C)C(=O)N1C [Design D10.66] (cyclo(A[Sar][dP][NMeV]VP[dP]A[dV][NMeL])) , give the reported PAMPA_Papp_Avg.
output: BQL

----------
# Test system: Caco-2 cells
# ASSAY DETAILS: Caco-2 permeability assay (apical to basolateral)
# Format: in vitro ADME, human
# COND: Caco-2
Where a SMILES comes first, the peptide text is derived from it. [ ]: non-standard residue; d: D form. NMeL = CN[C@@H](CC(C)C)C(=O)O; dNMeL = CN[C@H](CC(C)C)C(=O)O; NMeA = CN[C@@H](C)C(=O)O
MEASUREMENT TYPE: Caco_R3

Quick batch: Caco_R3 for everything below.
1. CC[C@@H](C)[C@H]1NC(=O)[C@@H](CC(C)C)NC(=O)[C@H](C(C)C)NC(=O)[C@@H](CC(C)C)N(C)C(=O)[C@@H]2CCCN2C(=O)[C@H](C)NC(=O)[C@H](CC(C)C)N(C)C(=O)[C@H]2CCCN2C(=O)[C@H](C)N(C)C(=O)[C@@H](CC(C)C)N(C)C(=O)[C@@H]2CCCN2C1=O [Design D11.5] (cyclo(AP[dNMeL]V[dL][dI]P[dNMeL][NMeA][dP][NMeL]))
2. CC(C)C[C@@H]1NC(=O)[C@@H](CC(C)C)NC(=O)[C@H]2CCCN2C(=O)[C@H](CC(C)C)NC(=O)[C@@H](CC(C)C)NC(=O)[C@H](CC(C)C)NC(=O)[C@@H]2CCCN2C(=O)[C@@H](C)NC1=O [Design D8.1, DLEU LEU DPRO DLEU LEU DALA PRO LEU] (cyclo(L[dA]PL[dL]L[dP][dL]))

output:
1. 3.89
2. 23.71

----------
# ASSAY DETAILS: Pharmacokinetics and oral bioavailability of D11.2 in male SD rats (IV, PO, SQ)
# Format: in vivo
# COND: male, Sprague Dawley, rat, plasma, po, 1 mg/kg, PO 1 mg/kg, individual rats R4, R5, R6; read-out: Tmax
Where a SMILES comes first, the peptide text is derived from it. [ ]: non-standard residue; d: D form. NMeL = CN[C@@H](CC(C)C)C(=O)O; Sar = CNCC(=O)O
MEASUREMENT TYPE: Tmax (min)
Numbers only, in min.

input: For the compound shown here, CC[C@@H](C)[C@H]1NC(=O)[C@@H]2CCCN2C(=O)[C@@H]([C@H](C)CC)NC(=O)CN(C)C(=O)[C@H](CC(C)C)NC(=O)[C@@H](Cc2ccccc2)NC(=O)[C@H](CC(C)C)N(C)C(=O)[C@H]2CCCN2C(=O)[C@@H](CC(C)C)NC(=O)[C@H](CC(C)C)NC(=O)[C@H]2CCCN2C1=O [Design D11.2] (cyclo(L[Sar][dI]P[dI][dP]L[dL][dP][NMeL][dF])) , give the reported Tmax.
output: 30

----------
# ASSAY DETAILS: Pharmacokinetics and oral bioavailability of D8.3.p1 and D10.1 in Balb/C female mice (PO, SQ, IV)
# Assay type: in vivo
# COND: female, Balb/C, mouse, in vivo, sc, 5 mg/kg, Plasma level
Where a SMILES comes first, the peptide text is derived from it. [ ]: non-standard residue; d: D form. dNMeL = CN[C@H](CC(C)C)C(=O)O
MEASUREMENT TYPE: level at time molar at 2 h
Lab note: write values as number then unit, every time.

input: For the molecule shown here, CC[C@@H](C)[C@H]1NC(=O)[C@@H](CC(C)C)NC(=O)[C@@H](CC(C)C)N(C)C(=O)[C@@H]2CCCN2C(=O)[C@@H](C(C)C)NC(=O)[C@H](CC(C)C)NC(=O)[C@@H](CC(C)C)N(C)C(=O)[C@@H]2CCCN2C1=O [Design D8.3.p1, DLEU DVAL PRO *DLEU DLEU DILE PRO *DLEU] (cyclo(L[dV]P[dNMeL][dL][dI]P[dNMeL])) , give the reported level at time molar at 2 h.
output: 720 nM

----------
# ASSAY DETAILS: Pharmacokinetics and oral bioavailability of D11.3 in male Swiss albino mice (IV, PO, SQ)
# Assay type: in vivo
# COND: male, Swiss albino, mouse, plasma; IV 1.00 mg/kg
Where a SMILES comes first, the peptide text is derived from it. [ ]: non-standard residue; d: D form. dNMeI = CC[C@@H](C)[C@@H](NC)C(=O)O; NMeL = CN[C@@H](CC(C)C)C(=O)O
MEASUREMENT TYPE: clearance (L/h/kg)
Answers are plain numbers, in L/h/kg.

input: For the compound shown here, CC[C@@H](C)[C@H]1NC(=O)[C@H]([C@@H](C)CC)NC(=O)[C@H](CC(C)C)N(C)C(=O)[C@H]2CCCN2C(=O)[C@@H]([C@H](C)CC)NC(=O)[C@@H]([C@H](C)CC)N(C)C(=O)[C@H](CC(C)C)NC(=O)[C@H]2CCCN2C(=O)[C@@H]2CCCN2C(=O)[C@H](C(C)C)NC(=O)[C@H]2CCCN2C1=O [Design D11.3] (cyclo(I[dI][dP]VP[dP]L[dNMeI][dI][dP][NMeL])) , give the reported clearance.
output: 0.139
